# Test system: SW1990 pancreatic adenocarcinoma cells [homozygous G12D]
# TEST PROTOCOL: Cancer cell line proliferation (CellTiter-Glo), SW1990
# Format: cell-based
# CONDITION LABEL: Homo sapiens, 72 hr treatment, read-out: SW1990 CTG (EC50)
Each entry below carries its recorded EC50.
METRIC: EC50

COMPOUND	TEST SYSTEM	METRIC	RESULT
C#Cc1c(F)ccc2cc(O)cc(-c3ncc4c(N5CC6CCC(C5)N6)nc(OC[C@H]5CCCN5Cc5ccc6c(c5)CN(C(=O)c5cc(C(C)C)c(O)cc5O)C6)nc4c3F)c12	SW1990 pancreatic adenocarcinoma cells [homozygous G12D]	EC50	> 1000 nM
C#Cc1cccc2cc(O)cc(-c3ncc4c(N5CC6CCC(C5)N6)nc(OCC5(CN6CCN(Cc7ccc8c(c7)CN(C(=O)c7cc(C(C)C)c(O)cc7O)C8)CC6)CC5)nc4c3F)c12	SW1990 pancreatic adenocarcinoma cells [homozygous G12D]	EC50	< 100 nM
C#Cc1cccc2cc(O)cc(-c3ncc4c(N5CC6CCC(C5)N6)nc(OCC5(CN6CCN(CC7CCN(Cc8ccc(-n9c(C(=O)NCC)nnc9-c9cc(C(C)C)c(OC)cc9OC)cc8)CC7)CC6)CC5)nc4c3F)c12	SW1990 pancreatic adenocarcinoma cells [homozygous G12D]	EC50	100 to 1000 nM
C#Cc1cccc2cc(O)cc(-c3ncc4c(N5CC6CCC(C5)N6)nc(OCC5(CN6CCN(CC7CCN(Cc8ccc9c(c8)CN(C(=O)c8cc(C(C)C)c(O)cc8O)C9)CC7)CC6)CC5)nc4c3F)c12	SW1990 pancreatic adenocarcinoma cells [homozygous G12D]	EC50	< 100 nM
C#Cc1c(F)ccc2cc(O)cc(-c3ncc4c(N5CC6CCC(C5)N6)nc(OCC5(CN6CCN(CC7CCN(Cc8ccc(-n9c(C(=O)NCC)nnc9-c9cc(CC)c(O)cc9O)cc8)CC7)CC6)CC5)nc4c3F)c12	SW1990 pancreatic adenocarcinoma cells [homozygous G12D]	EC50	< 100 nM
C#Cc1cccc2cccc(-c3ncc4c(N5CC6CCC(C5)N6)nc(OCC5(CN6CCN(Cc7ccc(-n8c(C(=O)NCC(F)(F)F)nnc8-c8cc(C(C)C)c(O)cc8O)cc7)CC6)CC5)nc4c3F)c12	SW1990 pancreatic adenocarcinoma cells [homozygous G12D]	EC50	< 100 nM
C#Cc1c(F)ccc2cc(O)cc(-c3ncc4c(N5CC6CCC(C5)N6)nc(OCC5(CN6CCN(CC7CN(Cc8ccc(-n9c(C(=O)NC(C)C(F)(F)F)nnc9-c9cc(C(C)C)c(O)cc9O)cc8)C7)CC6)CC5)nc4c3F)c12 (stereo not drawn)	SW1990 pancreatic adenocarcinoma cells [homozygous G12D]	EC50	< 100 nM
C#Cc1cccc2cc(O)cc(-c3ncc4c(N5CC6CCC(C5)N6)nc(OCC5(CN6CCC(OC7CCN(Cc8ccc(-n9c(C(=O)NCC(F)(F)F)nnc9-c9cc(C(C)C)c(O)cc9O)cc8)CC7)CC6)CC5)nc4c3F)c12	SW1990 pancreatic adenocarcinoma cells [homozygous G12D]	EC50	< 100 nM
C#Cc1cccc2cc(O)cc(-c3ncc4c(N5CC6CCC(C5)N6)nc(OCC5(CN6CCN(Cc7ccc(-n8c(C(=O)NCC(F)(F)F)nnc8-c8cc(C(C)C)c(O)cc8O)cc7)CC6)CC5)nc4c3F)c12	SW1990 pancreatic adenocarcinoma cells [homozygous G12D]	EC50	< 100 nM
